details: in n-propyl acetate, 303.15 K
MEASURED_METRIC: solubility (mole fraction)
// no unit, no text: just the number

input: Give the reported solubility (mole fraction) for this compound. CCOc1ccc2ccccc2c1C(=O)O
output: 0.028

---

settings: in n-propyl acetate, 278.15 K
MEASURED_METRIC: solubility (mole fraction)
// no unit, no text: just the number

input: Give the reported solubility (mole fraction) for this compound. CCOc1ccc2ccccc2c1C(=O)O
output: 0.0129

---

settings: in n-propanol, 308.15 K
MEASURED_METRIC: solubility (mole fraction)
// no unit, no text: just the number

input: Give the reported solubility (mole fraction) for this compound. CCOc1ccc2ccccc2c1C(=O)O
output: 0.0632
